# Test system: Vibrio cholerae
# experimentSummary: growth AUC normalised to DMSO control (fraction of control); higher = less growth inhibition, active = hit call of the paper
# measurementContext: 20 µM
Structures can show the parent of a compound that is named as a salt.
growth AUC normalised to DMSO control of 1 or higher: met. Under 1: not met.

Here are 8 compounds together with their reported answers.
- compound: "O=C1CN(/N=C/c2ccc([N+](=O)[O-])o2)C(=O)N1"
  group: "not met"
- compound: "O=C(O)c1cn(C2CC2)c2cc(N3CCNCC3)c(F)cc2c1=O [Ciprofloxacin hydrochloride monohydrate]"
  group: "not met"
- compound: "COc1ccc(C(=O)NCc2ccc(OCCN(C)C)cc2)cc1OC [Itopride]"
  group: "met"
- compound: "CN(C)CCn1nnnc1SCC1=C(C(=O)O)N2C(=O)[C@@H](NC(=O)Cc3csc(N)n3)[C@H]2SC1 [Cefotiam hydrochloride]"
  group: "not met"
- compound: "CC(=O)N(CC(C)C(=O)O)c1c(I)cc(I)c(N)c1I (centres undefined)"
  group: "not met"
- compound: "CN1CCC(=C2c3ccccc3CCc3sccc32)CC1 [Pizotifen malate]"
  group: "not met"
- compound: "CCOC(=O)c1ccc(N)cc1"
  group: "met"
- compound: "CCn1nc(C(=O)O)c(=O)c2cc3c(cc21)OCO3"
  group: "not met"

Kindly review the next compound as well.
// query Check this compound for growth AUC normalised to DMSO control at or above 1: CN(C)CCCN1c2ccccc2Sc2ccccc21 [Promazine hydrochloride]
// result not met
